The following molecules are listed with their measured inhibition values.
Target: Protein deacetylase HDAC6 (Homo sapiens) (UniProt Q9UBN7)
Sequence (whole entry): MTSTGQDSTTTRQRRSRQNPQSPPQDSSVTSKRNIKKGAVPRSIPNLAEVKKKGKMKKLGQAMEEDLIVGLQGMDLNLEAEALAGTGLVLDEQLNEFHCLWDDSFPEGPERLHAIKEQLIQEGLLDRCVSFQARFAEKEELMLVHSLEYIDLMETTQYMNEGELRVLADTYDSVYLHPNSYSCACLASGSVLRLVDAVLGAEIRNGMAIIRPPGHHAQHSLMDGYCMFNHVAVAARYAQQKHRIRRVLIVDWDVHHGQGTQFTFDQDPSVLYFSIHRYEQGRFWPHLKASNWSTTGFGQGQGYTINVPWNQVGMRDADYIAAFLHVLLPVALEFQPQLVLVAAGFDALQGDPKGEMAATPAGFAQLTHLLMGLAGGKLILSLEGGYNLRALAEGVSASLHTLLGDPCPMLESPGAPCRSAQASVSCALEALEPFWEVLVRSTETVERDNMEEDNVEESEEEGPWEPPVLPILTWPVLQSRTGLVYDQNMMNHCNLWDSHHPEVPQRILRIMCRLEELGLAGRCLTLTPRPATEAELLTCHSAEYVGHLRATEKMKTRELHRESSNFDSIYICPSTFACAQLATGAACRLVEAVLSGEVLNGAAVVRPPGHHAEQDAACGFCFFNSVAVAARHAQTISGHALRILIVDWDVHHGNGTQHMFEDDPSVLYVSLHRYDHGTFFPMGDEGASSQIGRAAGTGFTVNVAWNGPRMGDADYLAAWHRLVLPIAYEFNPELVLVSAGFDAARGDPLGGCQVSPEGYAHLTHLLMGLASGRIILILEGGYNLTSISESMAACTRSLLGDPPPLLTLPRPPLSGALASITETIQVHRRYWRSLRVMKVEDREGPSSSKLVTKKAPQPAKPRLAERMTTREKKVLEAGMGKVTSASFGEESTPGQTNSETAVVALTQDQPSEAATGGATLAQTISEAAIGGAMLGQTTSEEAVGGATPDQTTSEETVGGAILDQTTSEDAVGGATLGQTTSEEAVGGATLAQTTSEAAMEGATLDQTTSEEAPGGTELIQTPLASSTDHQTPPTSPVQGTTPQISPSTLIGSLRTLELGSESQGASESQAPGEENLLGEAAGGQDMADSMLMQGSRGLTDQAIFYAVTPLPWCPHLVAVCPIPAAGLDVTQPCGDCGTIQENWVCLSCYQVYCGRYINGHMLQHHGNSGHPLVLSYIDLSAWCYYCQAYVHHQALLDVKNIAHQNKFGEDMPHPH
Details: at 10 µM
Out of some 5,600 compounds screened, about 390 (7%) showed an effect of 50% or more. The entries come from a sample that favours strong results as a whole.
Measured Property: inhibition (%)

[[record]]
molecule = "Nc1nc(OCc2cc(Br)cs2)c2[nH]cnc2n1"
target_of_assay = "Protein deacetylase HDAC6 (Homo sapiens) (UniProt Q9UBN7)"
experimental_value = 65.4

[[record]]
molecule = "N[C@@H](CSCC(=O)O)C(=O)O"
target_of_assay = "Protein deacetylase HDAC6 (Homo sapiens) (UniProt Q9UBN7)"
experimental_value = 17.8

[[record]]
molecule = "O=C1NC(=O)/C(=C\\c2ccc(-c3ccc(F)cc3)o2)S1"
target_of_assay = "Protein deacetylase HDAC6 (Homo sapiens) (UniProt Q9UBN7)"
experimental_value = 60.3

[[record]]
molecule = "CC(=O)O[C@@H]1CC[C@@]2(C)[C@@H](CC[C@]3(C)[C@@H]2C(=O)C=C2[C@@H]4[C@@H](C)[C@H](C)CC[C@]4(C)CC[C@]23C)[C@@]1(C)C(=O)O"
target_of_assay = "Protein deacetylase HDAC6 (Homo sapiens) (UniProt Q9UBN7)"
experimental_value = -8.47

[[record]]
molecule = "NC(Cc1ccc(O)cc1)C(=O)O (racemic)"
target_of_assay = "Protein deacetylase HDAC6 (Homo sapiens) (UniProt Q9UBN7)"
experimental_value = 12.8

[[record]]
molecule = "CC(=O)OC[C@H]1O[C@@](COC(C)=O)(O[C@H]2O[C@H](COC(C)=O)[C@@H](OC(C)=O)[C@H](OC(C)=O)[C@H]2OC(C)=O)[C@@H](OC(C)=O)[C@@H]1OC(C)=O"
target_of_assay = "Protein deacetylase HDAC6 (Homo sapiens) (UniProt Q9UBN7)"
experimental_value = 102

[[record]]
molecule = "CC(C)(C)C#Cc1cc(N(C(=O)[C@H]2CC[C@H](C)CC2)[C@H]2CC[C@@H](O)CC2)c(C(=O)O)s1"
target_of_assay = "Protein deacetylase HDAC6 (Homo sapiens) (UniProt Q9UBN7)"
experimental_value = 26.8

[[record]]
molecule = "CO[C@@H](C(=O)N1Cc2[nH]nc(NC(=O)c3ccc(N4CCN(C)CC4)cc3)c2C1)c1ccccc1"
target_of_assay = "Protein deacetylase HDAC6 (Homo sapiens) (UniProt Q9UBN7)"
experimental_value = 21.1

[[record]]
molecule = "COc1ccn2ncc(-c3nc4[nH]nc(NC(=O)c5ccc(F)cc5)c4cc3F)c2c1"
target_of_assay = "Protein deacetylase HDAC6 (Homo sapiens) (UniProt Q9UBN7)"
experimental_value = 1.3

[[record]]
molecule = "N[C@@H](CSCCCO)C(=O)O"
target_of_assay = "Protein deacetylase HDAC6 (Homo sapiens) (UniProt Q9UBN7)"
experimental_value = 24.6

[[record]]
molecule = "CCCOc1ccc2c(c1)CC[C@@H]1[C@@H]2CC[C@]2(C)[C@@H](OC)CC[C@@H]12"
target_of_assay = "Protein deacetylase HDAC6 (Homo sapiens) (UniProt Q9UBN7)"
experimental_value = -9.5

[[record]]
molecule = "Cc1ncc([N+](=O)[O-])n1CC(O)CN1CCOCC1 (stereo unspecified)"
target_of_assay = "Protein deacetylase HDAC6 (Homo sapiens) (UniProt Q9UBN7)"
experimental_value = -5.36

[[record]]
molecule = "COc1cn(-c2ccc(-n3cccn3)cc2F)nc(-c2ccnn2-c2ccccc2)c1=O"
target_of_assay = "Protein deacetylase HDAC6 (Homo sapiens) (UniProt Q9UBN7)"
experimental_value = 0

[[record]]
molecule = "CC[N+](C)(CC)CCC[n+]1c(-c2ccccc2)c2cc(N)ccc2c2ccc(N)cc21"
target_of_assay = "Protein deacetylase HDAC6 (Homo sapiens) (UniProt Q9UBN7)"
experimental_value = 60.2

[[record]]
molecule = "O=C(Nc1ccncc1)C(=O)c1cn(Cc2ccc(Cl)cc2)c2ccccc12"
target_of_assay = "Protein deacetylase HDAC6 (Homo sapiens) (UniProt Q9UBN7)"
experimental_value = 11.2

[[record]]
molecule = "CC(=O)N[C@H]1[C@@H](OC(C)C)O[C@H](COC(C)=O)[C@@H](OC(C)=O)[C@@H]1OC(C)=O"
target_of_assay = "Protein deacetylase HDAC6 (Homo sapiens) (UniProt Q9UBN7)"
experimental_value = -0.18

[[record]]
molecule = "CCC[N+]12C3C[C@H](C4C(O)[C@]5(C[C@@H]41)c1ccccc1N(C)[C@@H]35)[C@H](CC)[C@H]2O (stereo partly specified)"
target_of_assay = "Protein deacetylase HDAC6 (Homo sapiens) (UniProt Q9UBN7)"
experimental_value = 26.3

[[record]]
molecule = "Nc1ccc(C(=O)OCC(O)CO)cc1 (stereo unspecified)"
target_of_assay = "Protein deacetylase HDAC6 (Homo sapiens) (UniProt Q9UBN7)"
experimental_value = 14.1

[[record]]
molecule = "O[AsH]O[AsH]O (stereo unspecified)"
target_of_assay = "Protein deacetylase HDAC6 (Homo sapiens) (UniProt Q9UBN7)"
experimental_value = -5.16

[[record]]
molecule = "CN1C[C@@H]2CN(c3ccc(-c4ccccc4)nn3)C[C@@H]2C1"
target_of_assay = "Protein deacetylase HDAC6 (Homo sapiens) (UniProt Q9UBN7)"
experimental_value = 10.2

[[record]]
molecule = "COC1(C[S+]([O-])c2ccccc2)CCN(CCc2c[nH]c3ccc(F)cc23)CC1 (stereo unspecified)"
target_of_assay = "Protein deacetylase HDAC6 (Homo sapiens) (UniProt Q9UBN7)"
experimental_value = 4.5

[[record]]
molecule = "CCCN(CCC)C(=O)Cc1c(-c2ccc(Cl)cc2)nc2ccc(Cl)cn12"
target_of_assay = "Protein deacetylase HDAC6 (Homo sapiens) (UniProt Q9UBN7)"
experimental_value = -6.78

[[record]]
molecule = "CC(C)(C)Nc1nc(Nc2ccc(C(N)=O)cc2)cc(N)c1C#N"
target_of_assay = "Protein deacetylase HDAC6 (Homo sapiens) (UniProt Q9UBN7)"
experimental_value = 26.8

[[record]]
molecule = "Cc1cc(Nc2cc(C)c(C#N)c(N[C@@H](C)CCCC(C)(C)O)n2)n[nH]1"
target_of_assay = "Protein deacetylase HDAC6 (Homo sapiens) (UniProt Q9UBN7)"
experimental_value = 27.9

[[record]]
molecule = "Cc1ccc(NC2=NCCN2)c(Cl)c1"
target_of_assay = "Protein deacetylase HDAC6 (Homo sapiens) (UniProt Q9UBN7)"
experimental_value = 7.22

[[record]]
molecule = "OC(CNc1ccccc1)Cn1c2ccc(Br)cc2c2cc(Br)ccc21 (stereo unspecified)"
target_of_assay = "Protein deacetylase HDAC6 (Homo sapiens) (UniProt Q9UBN7)"
experimental_value = -9.16

[[record]]
molecule = "Cc1cccc(/C=N/Nc2cc(N3CCOCC3)n3nc(-c4ccncc4)cc3n2)c1"
target_of_assay = "Protein deacetylase HDAC6 (Homo sapiens) (UniProt Q9UBN7)"
experimental_value = -1.46

[[record]]
molecule = "COc1cc2c(cc1OC)CN(C(=O)/C=C/c1c(-c3ccccc3)n(C)c3ncccc13)CC2"
target_of_assay = "Protein deacetylase HDAC6 (Homo sapiens) (UniProt Q9UBN7)"
experimental_value = 33.3

[[record]]
molecule = "CNC(C)CC1CCCCC1 (stereo unspecified)"
target_of_assay = "Protein deacetylase HDAC6 (Homo sapiens) (UniProt Q9UBN7)"
experimental_value = -3.99

[[record]]
molecule = "CN[C@@H]1Cc2cccc3[nH]c(=O)n(c23)C1"
target_of_assay = "Protein deacetylase HDAC6 (Homo sapiens) (UniProt Q9UBN7)"
experimental_value = 4.82

[[record]]
molecule = "O=C(O)c1cc(/N=N/c2ccc(O)c(C(=O)O)c2)ccc1O"
target_of_assay = "Protein deacetylase HDAC6 (Homo sapiens) (UniProt Q9UBN7)"
experimental_value = 98.2

[[record]]
molecule = "CC1(N2CCC(n3c([C@H]4CCCNC4)nc4ccccc43)CC2)CCCCCCC1"
target_of_assay = "Protein deacetylase HDAC6 (Homo sapiens) (UniProt Q9UBN7)"
experimental_value = -2.41

[[record]]
molecule = "CCCCCCCCCCCCCCCCCC[S+](CCC)c1ccccc1C(=O)OCC (stereo unspecified)"
target_of_assay = "Protein deacetylase HDAC6 (Homo sapiens) (UniProt Q9UBN7)"
experimental_value = 21

[[record]]
molecule = "N=C(N)Nc1ccc(C(=O)Oc2ccc3cc(C(=N)N)ccc3c2)cc1"
target_of_assay = "Protein deacetylase HDAC6 (Homo sapiens) (UniProt Q9UBN7)"
experimental_value = 29.9

[[record]]
molecule = "O=C(N[C@H]1CN2CCC1CC2)c1c[nH]c2ccsc2c1=O"
target_of_assay = "Protein deacetylase HDAC6 (Homo sapiens) (UniProt Q9UBN7)"
experimental_value = 10.3

[[record]]
molecule = "COc1cc(CN2CCN(c3ccc(F)cc3)CC2)cc(OC)c1OC"
target_of_assay = "Protein deacetylase HDAC6 (Homo sapiens) (UniProt Q9UBN7)"
experimental_value = 16.8


Reference source: ChEMBL document CHEMBL4808148
